Experimental target: recombinant human vWF-A1 domain (Homo sapiens)
Construct: whole blood drawn from voluntary donors; made in house; host or cells: E. coli (vWF-A1); washed platelets from human donor blood (GPIb, endogenous)
Assay explanation: Static human platelet adhesion to recombinant human vWF-A1 domain
Assay type: cell-based
Experimental setup: washed calcein AM labeled human platelets, static conditions, 1.5 h adhesion; read-out: Activity (IC50 for inhibition of the binding of platelets to vWF A1 domain)
pIC50: −log10 of the molar value. Non-standard residues stand in square brackets, D forms with d. Residues, ends and D or L forms follow the SMILES beside them. Chg = N[C@H](C(=O)O)C1CCCCC1; Orn = NCCC[C@H](N)C(=O)O; Nva = CCC[C@H](N)C(=O)O; Dap = NC[C@H](N)C(=O)O; Aib = CC(C)(N)C(=O)O; Ahp = NCCCCCCC(=O)O; Ahx = NCCCCCC(=O)O; GABA = NCCCC(=O)O
# Lookup of reported pIC50 keyed by entry

// solved cases for pIC50 follow
- CSCC[C@@H]1NC(=O)[C@H](CCCNC(=N)N)NC(=O)[C@H](CCC(=O)O)NC(=O)[C@H]([C@@H](C)O)NC(=O)C(C)(C)NC(=O)CCCNC(=O)[C@H](CC(C)C)NC(=O)[C@H](CC(N)=O)NC(=O)[C@H](Cc2c[nH]cn2)NC(=O)[C@H](CC(C)C)NC(=O)[C@H](C)NC1=O [Example 53] (cyclo(ALHNL[GABA][Aib]TERM)): 5.00 to 6.00
- CSCC[C@@H]1NC(=O)[C@H](CCCNC(=N)N)NC(=O)[C@H](CCC(=O)O)NC(=O)[C@H]([C@@H](C)O)NC(=O)CCCCCCNC(=O)[C@H](CC(C)C)NC(=O)[C@H](CC(N)=O)NC(=O)[C@H](CCCN)NC(=O)[C@H](CC(C)C)NC(=O)[C@H](C)NC1=O [Example 34] (cyclo(AL[Orn]NL[Ahp]TERM)): 5.00 to 6.00
- CSCC[C@@H]1NC(=O)[C@H](CCCNC(=N)N)NC(=O)[C@H](CCC(=O)O)NC(=O)[C@H]([C@@H](C)O)NC(=O)CCCCCCNC(=O)[C@H](CC(C)C)NC(=O)[C@H](CC(N)=O)NC(=O)[C@H](Cc2c[nH]cn2)NC(=O)[C@H](CC(C)C)NC(=O)[C@H](CN)NC1=O [Example 32] (cyclo([Ahp]TERM[Dap]LHNL)): > 6.00
- CSCC[C@@H]1NC(=O)[C@H](CCCNC(=N)N)NC(=O)[C@H](CCC(=O)O)NC(=O)[C@H]([C@@H](C)O)NC(=O)CCCCCNC(=O)[C@H](CC(C)C)NC(=O)[C@H](CC(N)=O)NC(=O)[C@H](Cc2c[nH]cn2)NC(=O)[C@H](CC(C)C)NC(=O)[C@H](C)NC1=O [Example 11] (cyclo(ALHNL[Ahx]TERM)): 5.00 to 6.00
- CC(C)C[C@@H]1NC(=O)[C@H](C)NC(=O)[C@H](C2CCCCC2)NC(=O)[C@H](CCCNC(=N)N)NC(=O)[C@H](CCC(=O)O)NC(=O)[C@H]([C@@H](C)O)NC(=O)CCCCCCNC(=O)[C@H](CC(C)C)NC(=O)[C@H](CC(N)=O)NC(=O)[C@H](Cc2c[nH]cn2)NC1=O [Example 39] (cyclo(ALHNL[Ahp]TER[Chg])): 5.00 to 6.00

Please find the next compound below.
Value of measured pIC50 for the entry CCC[C@@H]1NC(=O)[C@H](C)NC(=O)[C@H](CCSC)NC(=O)[C@H](CCCNC(=N)N)NC(=O)[C@H](CCC(=O)O)NC(=O)[C@H]([C@@H](C)O)NC(=O)CCCCCCNC(=O)[C@H](CC(C)C)NC(=O)[C@H](CC(N)=O)NC(=O)[C@H](Cc2c[nH]cn2)NC1=O [Example 19] (cyclo(A[Nva]HNL[Ahp]TERM)) : > 6.00

###

Experimental target: recombinant human vWF-A1 domain (Homo sapiens)
Construct: whole blood drawn from voluntary donors; made in house; host or cells: E. coli (vWF-A1); washed platelets from human donor blood (GPIb, endogenous)
Assay explanation: Static human platelet adhesion to recombinant human vWF-A1 domain
Type: cell-based
Experimental setup: washed calcein AM labeled human platelets, static conditions, 1.5 h adhesion; read-out: Activity (IC50 for inhibition of the binding of platelets to vWF A1 domain)
Starred links: 1 amine or outer side, 2 acyl side, 3 side chain; linkers in the order of their positions; H or OH if unused. Positions of bridges follow the written chain, without caps; N, C: chain ends. Non-standard residues stand in square brackets, D forms with d. Residues, ends and D or L forms follow the SMILES beside them. ξ: configuration not given here. X1 = CSCC[C@H](NN[C@@H](CCCNC(=N)N)C(=O)C(=O)[C@H](CCC(=O)O)N[*:2])C(=O)[*:1]; Cha = N[C@@H](CC1CCCCC1)C(=O)O; Chg = N[C@H](C(=O)O)C1CCCCC1; Abu = CC[C@H](N)C(=O)O; Aoc = NCCCCCCCC(=O)O; Ahp = NCCCCCCC(=O)O; ξA = CC(N)C(=O)O
Metric: IC50

Below: 5 compounds and their reported IC50.
• CSCC[C@@H]1NC(=O)[C@H](CCCCN)NC(=O)[C@H](CCC(=O)O)NC(=O)[C@H]([C@@H](C)O)NC(=O)CCCCCCNC(=O)[C@H](CC(C)C)NC(=O)[C@H](CC(N)=O)NC(=O)[C@H](Cc2c[nH]cn2)NC(=O)[C@H](CC(C)C)NC(=O)[C@H](C)NC1=O [Example 7] (cyclo(ALHNL[Ahp]TEKM)) = 1 to 10 µM
• CSCC[C@@H]1NC(=O)[C@H](CCCNC(=N)N)NC(=O)[C@H](CCC(=O)O)NC(=O)[C@H]([C@@H](C)O)NC(=O)CCCCCCNC(=O)[C@H](CC(C)C)NC(=O)[C@H](CC(N)=O)NC(=O)[C@H](Cc2c[nH]cn2)NC(=O)[C@H](C2CCCCC2)NC(=O)[C@H](C)NC1=O [Example 20] (cyclo(A[Chg]HNL[Ahp]TERM)) = 1 to 10 µM
• CSCC[C@@H]1NN[C@@H](CCCNC(=N)N)C(=O)C(=O)[C@H](CCC(=O)O)NC(=O)[C@H]([C@@H](C)O)NC(=O)CCCCCCNC(=O)[C@H](CC(C)C)NC(=O)[C@H](CC(N)=O)NC(=O)[C@H](Cc2cnc[nH]2)NC(=O)[C@H](CC(C)C)NC(=O)C(C)NC1=O (stereo partly drawn) [Example 1] ([ξA]LHNL[Ahp]T; linker N-C via X1) = < 1 µM
• CSCC[C@@H]1NC(=O)[C@H](CCCNC(=N)N)NC(=O)[C@H](CCC(=O)O)NC(=O)[C@H]([C@@H](C)O)NC(=O)CCCCCCCNC(=O)[C@H](CC(C)C)NC(=O)[C@H](CC(N)=O)NC(=O)[C@H](Cc2c[nH]cn2)NC(=O)[C@H](CC(C)C)NC(=O)[C@H](C)NC1=O [Example 6] (cyclo(ALHNL[Aoc]TERM)) = < 1 µM
• CSCC[C@@H]1NC(=O)[C@H](CCCNC(=N)N)NC(=O)[C@H](CCC(=O)O)NC(=O)[C@H]([C@@H](C)O)NC(=O)CCCCCCNC(=O)[C@H](CC(C)C)NC(=O)[C@H](CC(N)=O)NC(=O)[C@@H](Cc2c[nH]cn2)NC(=O)[C@H](CC(C)C)NC(=O)[C@H](C)NC1=O [Example 33] (cyclo(AL[dH]NL[Ahp]TERM)) = 1 to 10 µM

Reported IC50 for CSCC[C@@H]1NC(=O)[C@H](CCCNC(=N)N)NC(=O)[C@H](CCC(=O)O)NC(=O)[C@H]([C@@H](C)O)NC(=O)CCCCCCNC(=O)[C@H](CC(C)C)NC(=O)[C@H](CC(N)=O)NC(=O)[C@H](Cc2c[nH]cn2)NC(=O)[C@H](CC2CCCCC2)NC(=O)[C@H](C)NC1=O [Example 16] (cyclo([Cha]HNL[Ahp]TERMA)) was < 1 µM

IC50 reported for this compound CC[C@@H]1NC(=O)[C@H](CCCNC(=N)N)NC(=O)[C@H](CCC(=O)O)NC(=O)[C@H]([C@@H](C)O)NC(=O)CCCCCCNC(=O)[C@H](CC(C)C)NC(=O)[C@H](CC(N)=O)NC(=O)[C@H](Cc2c[nH]cn2)NC(=O)[C@H](CC(C)C)NC(=O)[C@H](C)NC1=O [Example 42] (cyclo(ALHNL[Ahp]TER[Abu])) : < 1 µM

###

Experimental target: recombinant human vWF-A1 domain (Homo sapiens, UniProt P07359)
Construct: whole blood drawn from voluntary donors; made in house; host or cells: E. coli (vWF-A1); washed platelets from human donor blood (GPIb, endogenous)
Sequence (P07359 17-652): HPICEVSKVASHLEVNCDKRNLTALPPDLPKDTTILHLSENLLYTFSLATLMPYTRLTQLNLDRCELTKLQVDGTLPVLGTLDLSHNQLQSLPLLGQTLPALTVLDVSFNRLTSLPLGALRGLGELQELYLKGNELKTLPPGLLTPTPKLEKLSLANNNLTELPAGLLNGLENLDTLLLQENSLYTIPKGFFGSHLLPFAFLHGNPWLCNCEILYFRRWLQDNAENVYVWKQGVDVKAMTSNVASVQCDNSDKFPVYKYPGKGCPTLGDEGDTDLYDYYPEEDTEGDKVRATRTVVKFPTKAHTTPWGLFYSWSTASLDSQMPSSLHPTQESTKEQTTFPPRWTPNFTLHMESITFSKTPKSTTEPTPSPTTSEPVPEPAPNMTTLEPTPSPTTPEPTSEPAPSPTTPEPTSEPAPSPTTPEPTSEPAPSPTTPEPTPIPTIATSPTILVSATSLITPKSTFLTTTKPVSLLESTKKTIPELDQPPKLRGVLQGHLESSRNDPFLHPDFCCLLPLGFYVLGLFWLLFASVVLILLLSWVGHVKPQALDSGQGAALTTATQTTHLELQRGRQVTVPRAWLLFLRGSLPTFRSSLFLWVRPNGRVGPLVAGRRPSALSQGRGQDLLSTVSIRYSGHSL
Sequence (P13224 26-206 partner): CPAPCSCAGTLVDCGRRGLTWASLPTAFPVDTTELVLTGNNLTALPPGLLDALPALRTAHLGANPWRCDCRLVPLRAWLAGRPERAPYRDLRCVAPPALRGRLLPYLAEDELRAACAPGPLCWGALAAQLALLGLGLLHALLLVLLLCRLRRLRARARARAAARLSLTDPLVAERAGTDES
Sequence (P14770 17-177 partner): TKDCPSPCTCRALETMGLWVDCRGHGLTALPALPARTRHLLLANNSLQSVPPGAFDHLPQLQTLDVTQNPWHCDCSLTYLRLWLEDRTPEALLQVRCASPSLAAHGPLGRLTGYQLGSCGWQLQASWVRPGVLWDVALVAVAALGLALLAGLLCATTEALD
Assay explanation: Static human platelet adhesion to recombinant human vWF-A1 domain
Format: cell-based
Experimental setup: washed calcein AM labeled human platelets, static conditions, 1.5 h adhesion; read-out: Activity (IC50 for inhibition of the binding of platelets to vWF A1 domain)
Non-standard residues stand in square brackets, D forms with d. Residues, ends and D or L forms follow the SMILES beside them. Orn = NCCC[C@H](N)C(=O)O; Dab = NCC[C@H](N)C(=O)O; Nva = CCC[C@H](N)C(=O)O; Ahp = NCCCCCCC(=O)O; GABA = NCCCC(=O)O
Consider the following compounds and their measured IC50 readings.

response.value for CSCC[C@@H]1NC(=O)[C@H](CCCNC(=N)N)NC(=O)[C@H](CCC(=O)O)NC(=O)[C@H](CCN)NC(=O)CCCCCCNC(=O)[C@H](CC(C)C)NC(=O)[C@H](CC(N)=O)NC(=O)[C@H](Cc2c[nH]cn2)NC(=O)[C@H](CC(C)C)NC(=O)[C@H](C)NC1=O [Example 24] (cyclo(ALHNL[Ahp][Dab]ERM)) (field: IC50) = < 1000 nM

Memo: CSCC[C@@H]1NC(=O)[C@H](CCCNC(=N)N)NC(=O)[C@H](CCC(=O)O)NC(=O)[C@H](Cc2c[nH]cn2)NC(=O)CCCCCCNC(=O)[C@H](CC(C)C)NC(=O)[C@H](CC(N)=O)NC(=O)[C@H](Cc2c[nH]cn2)NC(=O)[C@H](CC(C)C)NC(=O)[C@H](C)NC1=O [Example 21] (cyclo(ALHNL[Ahp]HERM)) , reported IC50: 1000 to 10000 nM

IC50 recorded for this compound, CSCC[C@@H]1NC(=O)[C@H](CCCN)NC(=O)[C@H](CCC(=O)O)NC(=O)[C@H]([C@@H](C)O)NC(=O)CCCCCCNC(=O)[C@H](CC(C)C)NC(=O)[C@H](CC(N)=O)NC(=O)[C@H](Cc2c[nH]cn2)NC(=O)[C@H](CC(C)C)NC(=O)[C@H](C)NC1=O [Example 28] (cyclo(ALHNL[Ahp]TE[Orn]M)) , is < 1000 nM

// field: IC50; key: CSCC[C@@H]1NC(=O)[C@H](CCCNC(=N)N)NC(=O)[C@H](CCC(=O)O)NC(=O)[C@H](CC(N)=O)NC(=O)CCCCCCNC(=O)[C@H](CC(C)C)NC(=O)[C@H](CC(N)=O)NC(=O)[C@H](Cc2c[nH]cn2)NC(=O)[C@H](CC(C)C)NC(=O)[C@H](C)NC1=O [Example 22] (cyclo(ALHNL[Ahp]NERM)) ; value = < 1000 nM

The value of IC50 measured for the compound CCC[C@@H]1NC(=O)[C@H](CCSC)NC(=O)[C@H](CCCNC(=N)N)NC(=O)[C@H](CCC(=O)O)NC(=O)[C@H]([C@@H](C)O)NC(=O)CCCCCCNC(=O)[C@H](CC(C)C)NC(=O)[C@H](CC(N)=O)NC(=O)[C@H](Cc2c[nH]cn2)NC(=O)[C@H](CC(C)C)NC1=O [Example 31] (cyclo([Ahp]TERM[Nva]LHNL)) turned out to be 1000 to 10000 nM

Kindly note the recorded IC50 for CSCC[C@@H]1NC(=O)[C@H](CCCNC(=N)N)NC(=O)[C@H](CCC(=O)O)NC(=O)[C@H]([C@@H](C)O)NC(=O)[C@H](CC(N)=O)NC(=O)CCCNC(=O)[C@H](CC(C)C)NC(=O)[C@H](CC(N)=O)NC(=O)[C@H](Cc2c[nH]cn2)NC(=O)[C@H](CC(C)C)NC(=O)[C@H](C)NC1=O [Example 50] (cyclo(ALHNL[GABA]NTERM)) , which is 1000 to 10000 nM

Reported IC50 ( CC(C)C[C@@H]1NC(=O)[C@H](C)NC(=O)[C@H](CC(C)C)NC(=O)[C@H](CCCNC(=N)N)NC(=O)[C@H](CCC(=O)O)NC(=O)[C@H]([C@@H](C)O)NC(=O)CCCCCCNC(=O)[C@H](CC(C)C)NC(=O)[C@H](CC(N)=O)NC(=O)[C@H](Cc2c[nH]cn2)NC1=O [Example 38] (cyclo(ALHNL[Ahp]TERL)) ) = < 1000 nM

IC50 in this record for CC(C)C[C@@H]1NC(=O)[C@H](C)NC(=O)[C@H](C)NC(=O)[C@H](CCCNC(=N)N)NC(=O)[C@H](CCC(=O)O)NC(=O)[C@H]([C@@H](C)O)NC(=O)CCCCCCNC(=O)[C@H](CC(C)C)NC(=O)[C@H](CC(N)=O)NC(=O)[C@H](Cc2c[nH]cn2)NC1=O [Example 40] (cyclo(AALHNL[Ahp]TER)) : < 1000 nM
